tested on: HepG2 cells; assay: Neutral red uptake assay, HepG2 cells; format: cell-based, human; conditions: NRU assay, HepG2, 24 h incubation
measurement-name: IC50 (µM)
Unit µM implied. Number only.

// [Cl-].[Cl-].[Cl-].[Fe+3] [Iron chloride, FeCl3 × 6H2O] : IC50 value = 1200

====

test system: HepG2 cells; experiment: MTT reduction assay, HepG2 cells; type: cell-based, human; conditions: MTT assay, HepG2, 24 h incubation
Assignment: determine reported pIC50 for the given molecules.
To interpret pIC50, take it as minus log10 of a concentration measured in moles per litre.

Tested on HepG2 cells: [Cl-].[Cl-].[Cl-].[Fe+3] [Iron chloride, FeCl3 × 6H2O] . Observed pIC50: 2.89

Tested on HepG2 cells: [Cl][Ni][Cl] [Nickel chloride, NiCl2] . Observed pIC50: 3.40
